Sourced from patent US20230265103A1

molecular target: PIKFYVE (Homo sapiens, UniProt Q9Y2I7); construct: purchased Eurofins (KINOMEscan); host or cells: E. coli BL21-derived (T7 phage display) or HEK-293; assay: KINOMEscan Kinase Assay (Eurofins), PIKFYVE inhibitory activity; type: binding; settings: @ 3 nM
Sequence (Q9Y2I7 whole entry): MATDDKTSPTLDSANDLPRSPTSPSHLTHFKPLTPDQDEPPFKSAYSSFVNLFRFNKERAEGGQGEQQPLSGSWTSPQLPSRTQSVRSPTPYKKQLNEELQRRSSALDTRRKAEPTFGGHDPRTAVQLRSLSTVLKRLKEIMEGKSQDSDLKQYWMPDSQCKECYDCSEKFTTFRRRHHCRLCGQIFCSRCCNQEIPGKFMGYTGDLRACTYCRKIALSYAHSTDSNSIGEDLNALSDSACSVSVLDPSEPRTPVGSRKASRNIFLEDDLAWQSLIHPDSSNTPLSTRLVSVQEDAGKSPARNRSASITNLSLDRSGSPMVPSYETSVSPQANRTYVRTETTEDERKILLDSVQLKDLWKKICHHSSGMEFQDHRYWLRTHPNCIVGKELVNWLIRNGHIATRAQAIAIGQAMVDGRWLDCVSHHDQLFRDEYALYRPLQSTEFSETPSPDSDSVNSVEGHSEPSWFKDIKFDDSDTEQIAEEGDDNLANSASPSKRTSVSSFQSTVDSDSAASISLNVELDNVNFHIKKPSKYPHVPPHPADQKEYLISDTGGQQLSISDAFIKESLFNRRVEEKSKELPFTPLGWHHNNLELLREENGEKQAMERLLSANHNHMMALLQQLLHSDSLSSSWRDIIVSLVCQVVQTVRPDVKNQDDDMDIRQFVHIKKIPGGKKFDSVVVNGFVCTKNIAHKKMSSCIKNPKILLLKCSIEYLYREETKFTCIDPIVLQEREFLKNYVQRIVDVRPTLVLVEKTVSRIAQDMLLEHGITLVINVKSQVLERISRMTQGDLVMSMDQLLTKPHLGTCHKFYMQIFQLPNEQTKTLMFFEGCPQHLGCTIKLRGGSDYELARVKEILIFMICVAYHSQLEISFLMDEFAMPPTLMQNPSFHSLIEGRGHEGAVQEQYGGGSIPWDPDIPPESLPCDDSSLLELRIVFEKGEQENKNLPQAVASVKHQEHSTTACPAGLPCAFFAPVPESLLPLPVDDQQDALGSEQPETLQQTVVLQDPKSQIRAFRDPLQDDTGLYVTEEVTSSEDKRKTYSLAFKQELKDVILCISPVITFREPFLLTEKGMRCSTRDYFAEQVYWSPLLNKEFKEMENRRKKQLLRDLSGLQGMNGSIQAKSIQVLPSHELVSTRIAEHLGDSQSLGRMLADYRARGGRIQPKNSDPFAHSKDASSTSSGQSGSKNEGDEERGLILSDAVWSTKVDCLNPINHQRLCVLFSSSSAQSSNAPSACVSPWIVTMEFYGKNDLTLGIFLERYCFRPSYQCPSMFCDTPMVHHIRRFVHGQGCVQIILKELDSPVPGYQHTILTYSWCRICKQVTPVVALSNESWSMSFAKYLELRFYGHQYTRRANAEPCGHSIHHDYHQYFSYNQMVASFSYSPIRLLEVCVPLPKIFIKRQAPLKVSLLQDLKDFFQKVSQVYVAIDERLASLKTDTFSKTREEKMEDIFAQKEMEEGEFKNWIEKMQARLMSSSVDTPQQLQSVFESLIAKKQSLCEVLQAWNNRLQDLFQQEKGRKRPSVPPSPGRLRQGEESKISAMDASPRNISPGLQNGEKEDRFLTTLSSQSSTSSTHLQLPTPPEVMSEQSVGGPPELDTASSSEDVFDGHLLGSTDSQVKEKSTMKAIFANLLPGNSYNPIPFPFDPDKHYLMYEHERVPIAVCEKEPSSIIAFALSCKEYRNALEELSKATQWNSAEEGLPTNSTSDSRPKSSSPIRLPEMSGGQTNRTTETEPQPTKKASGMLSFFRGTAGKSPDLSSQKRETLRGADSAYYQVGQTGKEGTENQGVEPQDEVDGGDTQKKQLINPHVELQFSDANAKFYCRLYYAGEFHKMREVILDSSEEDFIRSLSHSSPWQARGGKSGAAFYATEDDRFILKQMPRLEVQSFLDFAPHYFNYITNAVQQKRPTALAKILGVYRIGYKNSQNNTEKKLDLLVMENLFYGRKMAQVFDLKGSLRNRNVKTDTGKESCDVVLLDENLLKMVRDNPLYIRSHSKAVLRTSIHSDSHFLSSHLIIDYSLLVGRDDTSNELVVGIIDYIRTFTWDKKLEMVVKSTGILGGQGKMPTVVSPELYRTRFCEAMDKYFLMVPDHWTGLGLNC
MEASUREMENT_TYPE: inhibition at 0.003 µM (%)
Answer format: numeric, % implied, no suffix.

Sure, the documented inhibition at 0.003 µM for `Cc1cccc(-c2ccn(-c3cc(N4CCOCC4)c4sc(CN5CCOCC5)c(C)c4n3)n2)c1` is 0

Sure, the documented inhibition at 0.003 µM for `Cc1cccc(-c2ccn(-c3cc(N4CCOCC4)c4sc(CN5CCC(C(C)(C)O)CC5)c(C)c4n3)n2)c1` is 23

Sure, the documented inhibition at 0.003 µM for `Cc1cccc(-c2ccn(-c3nc(N4CCOCC4)c4sc(N5CCN(S(C)(=O)=O)CC5)cc4n3)n2)c1` is 22

Sure, the documented inhibition at 0.003 µM for `Cc1cccc(-c2ccn(-c3nc(N4CCOCC4)c4nc(CN5CCOCC5)n(C)c4n3)n2)c1` is 94
